# credit: patent US20240174674A1

Kindly state IC50 for each of the entries shown.
- measured_on: RET G810R (Homo sapiens (Human), UniProt P07949, G810R)
- Sequence (P07949 29-1114 G810R): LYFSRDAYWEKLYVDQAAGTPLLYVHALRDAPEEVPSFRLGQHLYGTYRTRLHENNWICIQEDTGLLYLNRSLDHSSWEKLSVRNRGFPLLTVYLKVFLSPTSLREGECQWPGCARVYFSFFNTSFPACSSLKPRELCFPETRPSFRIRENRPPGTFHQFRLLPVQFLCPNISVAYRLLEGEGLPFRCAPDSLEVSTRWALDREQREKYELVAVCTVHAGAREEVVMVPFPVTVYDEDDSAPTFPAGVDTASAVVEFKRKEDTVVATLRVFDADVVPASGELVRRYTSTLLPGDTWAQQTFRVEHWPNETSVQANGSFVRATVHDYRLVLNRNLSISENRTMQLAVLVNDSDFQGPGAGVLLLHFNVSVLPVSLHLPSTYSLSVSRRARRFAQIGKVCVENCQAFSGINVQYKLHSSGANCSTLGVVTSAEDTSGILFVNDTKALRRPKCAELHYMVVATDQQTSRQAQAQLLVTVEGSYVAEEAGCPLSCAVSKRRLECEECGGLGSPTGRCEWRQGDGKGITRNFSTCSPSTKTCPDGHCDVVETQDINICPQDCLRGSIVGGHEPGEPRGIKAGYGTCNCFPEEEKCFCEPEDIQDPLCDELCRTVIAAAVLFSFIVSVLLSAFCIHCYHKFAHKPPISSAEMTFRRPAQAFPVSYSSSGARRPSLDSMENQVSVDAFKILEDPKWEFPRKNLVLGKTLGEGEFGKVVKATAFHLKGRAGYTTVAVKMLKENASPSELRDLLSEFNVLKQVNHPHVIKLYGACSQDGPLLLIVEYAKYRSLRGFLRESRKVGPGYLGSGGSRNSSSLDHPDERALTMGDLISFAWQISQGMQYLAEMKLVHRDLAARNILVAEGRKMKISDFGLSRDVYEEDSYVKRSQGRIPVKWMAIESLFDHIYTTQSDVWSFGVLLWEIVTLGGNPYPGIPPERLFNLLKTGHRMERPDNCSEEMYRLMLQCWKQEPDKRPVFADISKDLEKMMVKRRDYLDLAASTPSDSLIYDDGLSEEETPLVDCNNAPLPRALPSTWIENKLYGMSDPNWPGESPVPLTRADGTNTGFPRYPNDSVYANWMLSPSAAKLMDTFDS
- assay_procedure: HTRF KinEASE-TK kinase activity test, RET G810R
Numbers only, in nM.

CCOc1cc(-c2cnc(N3CCC(C)(NC(=O)c4ncccc4Cl)CC3)cn2)c2c3cn[nH]c3nn2c1 ... 4.6
CCOc1cc(-c2ccc(N3CC[C@H](NCc4c(F)cccc4Cl)[C@@H](O)C3)nc2)c2c3cn[nH]c3nn2c1 ... 14.5
COc1ccc(CN2C3CC2CN(c2ccc(-c4cc(OCC(=O)O)cn5nc6[nH]ncc6c45)cn2)C3)cn1 ... 4

Next up:
input: For the compound CCOc1cc(-c2ccc(N3CC4CC(C3)N4Cc3ccc(OC)nc3)nc2)c2c3cc[nH]c3nn2c1 , give its measured IC50 value.
output: 9.6

====

Kindly state IC50 for each of the entries shown.
- measured_on: RET V804M (Homo sapiens (Human), UniProt P07949, V804M)
- Sequence (P07949 29-1114 V804M): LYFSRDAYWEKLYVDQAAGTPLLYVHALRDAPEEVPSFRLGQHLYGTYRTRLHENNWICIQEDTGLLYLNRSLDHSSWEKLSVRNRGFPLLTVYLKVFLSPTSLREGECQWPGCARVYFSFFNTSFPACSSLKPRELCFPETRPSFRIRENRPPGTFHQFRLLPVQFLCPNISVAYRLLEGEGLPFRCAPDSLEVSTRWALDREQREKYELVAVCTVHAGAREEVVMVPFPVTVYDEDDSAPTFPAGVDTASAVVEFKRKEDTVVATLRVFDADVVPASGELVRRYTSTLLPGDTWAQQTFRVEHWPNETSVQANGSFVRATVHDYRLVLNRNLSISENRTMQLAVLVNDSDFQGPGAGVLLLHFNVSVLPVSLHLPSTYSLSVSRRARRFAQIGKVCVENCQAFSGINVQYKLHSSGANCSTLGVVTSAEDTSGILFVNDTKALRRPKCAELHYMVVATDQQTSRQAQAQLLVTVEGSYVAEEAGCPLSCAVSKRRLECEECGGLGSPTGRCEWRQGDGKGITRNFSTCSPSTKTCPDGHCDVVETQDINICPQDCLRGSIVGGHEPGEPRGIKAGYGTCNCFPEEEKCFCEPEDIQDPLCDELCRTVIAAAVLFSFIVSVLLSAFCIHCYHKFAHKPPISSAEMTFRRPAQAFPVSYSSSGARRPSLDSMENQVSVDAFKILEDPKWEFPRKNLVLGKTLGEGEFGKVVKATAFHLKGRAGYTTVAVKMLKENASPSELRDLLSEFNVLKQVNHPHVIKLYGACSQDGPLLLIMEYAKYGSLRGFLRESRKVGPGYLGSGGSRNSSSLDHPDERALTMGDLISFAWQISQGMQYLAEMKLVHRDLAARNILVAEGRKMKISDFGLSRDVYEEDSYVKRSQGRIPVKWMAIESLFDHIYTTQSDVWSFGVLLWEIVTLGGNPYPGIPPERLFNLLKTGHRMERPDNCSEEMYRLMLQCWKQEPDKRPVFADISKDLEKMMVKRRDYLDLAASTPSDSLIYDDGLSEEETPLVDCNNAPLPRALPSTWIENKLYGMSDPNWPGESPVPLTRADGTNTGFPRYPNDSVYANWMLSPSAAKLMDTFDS
- assay_procedure: HTRF KinEASE-TK kinase activity test, RET V804M
- test_settings: HTRF kinase assay
Answer format: number, then unit.

Example entries and their recorded answers appear below.
CCOc1cc(-c2ccc(N3CCC(C)(NC(=O)c4ncccc4Cl)CC3)nc2)c2c3cn[nH]c3nn2c1 [Compound 3] ... 0.1 nM
CCOc1cc(-c2ccc(N3CC[C@H](NC(=O)CC(C)C)[C@@H](O)C3)nc2)c2c3cn[nH]c3nn2c1 [Compound 39] ... 0.1 nM
CCOc1cc(-c2ccc(N3CCC(C)(NC(=O)c4ncc(F)cc4Cl)CC3)nc2)c2c3cn[nH]c3nn2c1 [Compound 4] ... 0.03 nM
CCOc1cc(-c2ccc(N3CC[C@H](NC(=O)c4ncccc4Cl)[C@H](O)C3)nc2)c2c3cn[nH]c3nn2c1 [Compound 42] ... 0.05 nM
CCOc1cc(-c2ccc(N3CCC(CO)(NC(=O)c4c(F)cccc4F)CC3)nc2)c2c3cn[nH]c3nn2c1 [Compound 11] ... 0.1 nM

For every item in the list below, what is its measured IC50?
1. CCOc1cc(-c2ccc(N3CC[C@H](NC(=O)c4c(F)cccc4Cl)[C@@H](O)C3)nc2)c2c3cn[nH]c3nn2c1 [Compound 44]
2. CCOc1cc(-c2ccc(N3CC[C@H](NC(=O)OC(C)(C)C)[C@@H](O)C3)nc2)c2c3cn[nH]c3nn2c1 [Compound 88]
3. CCOc1cc(-c2ccc(N3CC[C@H](NC(=O)c4cc(F)ccc4C)[C@@H](O)C3)nc2)c2c3cn[nH]c3nn2c1 [Compound 46]
4. CCOc1cc(-c2ccc(N3CC[C@H](NC(=O)C4(C(F)(F)F)CCC4)[C@@H](O)C3)nc2)c2c3cn[nH]c3nn2c1 [Compound 41]

output:
["0.1 nM", "0.2 nM", "0.06 nM", "0.1 nM"]

====

- measured_on: RET G810R (Homo sapiens (Human), UniProt P07949, G810R)
- assay_procedure: HTRF KinEASE-TK kinase activity test, RET G810R
- test_settings: read-out: RET G810R IC50; HTRF kinase assay
quantity: IC50 (nM)
One number for each entry, in nM.

Example entries and their recorded answers appear below.
CCOc1cc(-c2ccc(N3CCC(CO)(NC(=O)c4cc(F)ccc4F)CC3)nc2)c2c3cn[nH]c3nn2c1 [Compound 150] ... 4.4
CCOc1cc(-c2ccc(N3C[C@@H]4[C@H](C3)[C@H]4NC(=O)c3c(F)cccc3Cl)nc2)c2c3cn[nH]c3nn2c1 [Compound 170] ... 27.3
CCOc1cc(-c2cnc(N3CC[C@H](NC(=O)c4cc(F)ccc4Cl)[C@@H](O)C3)cn2)c2c3cn[nH]c3nn2c1 [Compound 91] ... 2.2
CCOc1cc(-c2ccc(N3C[C@@H]4[C@H](C3)[C@@H]4NCc3ccc(OC)nc3)nc2)c2c3cn[nH]c3nn2c1 [Compound 173] ... 12.5
CCOc1cc(-c2ccc(N3CCC(CN4CCCC4)(C(=O)NCC(C)C)CC3)nc2)c2c3cn[nH]c3nn2c1 [Compound 37] ... 6.3
CCOc1cc(-c2ccc(N3CCC(CN4CCOCC4)(NC(=O)CC(C)C)CC3)nc2)c2c3cn[nH]c3nn2c1 [Compound 29] ... 8.8
CCOc1cc(-c2ccc(N3CCC(Oc4ccc(C)nn4)CC3)nc2)c2c3cn[nH]c3nn2c1 [Compound 104] ... 6.4
CCOc1cc(-c2ccc(N3CCC(CO)(NC(=O)c4cc(F)ccc4F)CC3)nc2)c2c3cn[nH]c3nn2c1 [Compound 291] ... 1.6
CCOc1cc(-c2ccc(N3CC[C@H](NC(=O)C4(C(F)(F)F)CCC4)[C@@H](O)C3)nc2)c2c3cn[nH]c3nn2c1 [Compound 41] ... 2.8
CCOc1cc(-c2cnc(N3CCC(C)(NC(=O)c4nc(C)ccc4Cl)CC3)cn2)c2c3cn[nH]c3nn2c1 [Compound 56] ... 23.6

For every item in the list below, what is its measured IC50?
1. CCOc1cc(-c2ccc(N3CC[C@H](NC(=O)c4ncccc4C(F)(F)F)[C@@H](O)C3)nc2)c2c3cn[nH]c3nn2c1 [Compound 45]
2. CCOc1cc(-c2ccc(N3C[C@H]4CN(Cc5ccc(OC)nc5)C[C@H]4C3)nc2)c2c3cn[nH]c3nn2c1 [Compound 152]
3. CCOc1cc(-c2ccc(N3CCC4(CC3)CCN4C(=O)c3c(F)cccc3Cl)nc2)c2c3cn[nH]c3nn2c1 [Compound 201]
4. CCOc1cc(-c2ccc(N3CC[C@H](NC(=O)c4cc(F)ccc4C)[C@@H](O)C3)nc2)c2c3cn[nH]c3nn2c1 [Compound 46]

output:
5.2
4.1
4.1
1.6
